- assayedSystem: Cellular tumor antigen p53 (Homo sapiens) (UniProt P04637)
- Sequence (P04637 whole entry, looked up): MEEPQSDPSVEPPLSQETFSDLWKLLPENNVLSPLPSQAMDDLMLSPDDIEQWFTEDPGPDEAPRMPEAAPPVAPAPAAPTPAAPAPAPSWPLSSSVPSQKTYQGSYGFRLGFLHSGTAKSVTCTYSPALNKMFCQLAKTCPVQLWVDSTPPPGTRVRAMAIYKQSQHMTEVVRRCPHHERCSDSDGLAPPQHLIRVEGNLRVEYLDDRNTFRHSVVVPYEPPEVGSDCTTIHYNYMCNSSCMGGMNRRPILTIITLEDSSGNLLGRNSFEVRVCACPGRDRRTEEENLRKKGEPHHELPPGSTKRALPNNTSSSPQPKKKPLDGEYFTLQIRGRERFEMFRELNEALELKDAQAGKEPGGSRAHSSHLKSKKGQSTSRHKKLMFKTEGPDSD
- assayExplanation: TOX21_p53_BLA_p2_ratio: Tox21 HCT-116 p53 Agonism Beta-lactamase Assay, Ratio, Phase 2 (AID 2283592)
Inconclusive results are not listed. Activity calls are given as the source filed them. Rule for the calls: active = hit-call score of the fitted dose curve at least 0.9, where 1 is the maximum; inconclusive = response in the unintended direction; inactive = score below 0.9.
Outcome codes: active, inactive

- compound: "O=C(O)C(F)(F)C(F)(F)C(F)(F)C(F)(F)C(F)(F)C(F)(F)C(F)(F)F"
  categoryLabel: "inactive"
- compound: "COc1nn(CSP(=S)(OC)OC)c(=O)s1"
  categoryLabel: "inactive"
- compound: "CC(C)(C)C(O)/C(=C\\c1ccc(Cl)cc1Cl)n1cncn1 (stereo not given)"
  categoryLabel: "inactive"
- compound: "CCOCN(C(=O)CCl)c1c(C)cccc1CC"
  categoryLabel: "inactive"
- compound: "CCc1ccc(C(=O)NN(C(=O)c2cc(C)cc(C)c2)C(C)(C)C)cc1"
  categoryLabel: "inactive"
- compound: "OCCOc1ccccc1"
  categoryLabel: "inactive"
- compound: "CCC(C)(C)C(=O)OC1=C(c2ccc(Cl)cc2Cl)C(=O)OC12CCCCC2"
  categoryLabel: "inactive"
- compound: "O=C(O)COc1ccc(Cl)cc1Cl"
  categoryLabel: "inactive"
- compound: "CCC(C)(NC(=O)c1cc(Cl)c(C)c(Cl)c1)C(=O)CCl (stereo not given)"
  categoryLabel: "active"
- compound: "CC1(c2ccc(Oc3ccccc3)cc2)OC(=O)N(Nc2ccccc2)C1=O (stereo not given)"
  categoryLabel: "active"
- compound: "O=C(Nc1ccccc1)Nc1cnns1"
  categoryLabel: "active"
- compound: "C[C@H]1[C@H](c2ccc(Cl)cc2)SC(=O)N1C(=O)NC1CCCCC1"
  categoryLabel: "inactive"
- compound: "O=S(=O)(O)C(F)(F)C(F)(F)C(F)(F)C(F)(F)C(F)(F)C(F)(F)C(F)(F)C(F)(F)F"
  categoryLabel: "inactive"
- compound: "COP(=S)(OC)Oc1ccc([N+](=O)[O-])cc1"
  categoryLabel: "inactive"
- compound: "CCCN(CCOc1c(Cl)cc(Cl)cc1Cl)C(=O)n1ccnc1"
  categoryLabel: "active"
